Where do these numbers come from? They come from PubChem BioAssay.

test: small molecules captured by biotinylated probe aFGF2 – biochemical, small-molecule microarray, fluorescence 635/667, stem cell growth factor project, primary screen (AID 1067); details: higher = more signal;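 note: measures binding of biotinylated aFGF2 protein to printed compounds on slides; z-score merges feature fluorescence and signal-to-noise across triplicate slides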
Catalogue of composite z-score readings, one per entry.
Respond with the number and no other words.

COCCOC(=O)N1C(=O)[C@@]2(c3cc(C#CCCO)ccc31)[C@H](C(=O)NC[C@H](O)c1ccccc1)[C@H]1C(=O)O[C@H](c3ccccc3)[C@H](c3ccccc3)N1[C@@H]2c1ccc(OCCO)cc1: -0.114
CS(=O)(=O)CCOC(=O)C1=CC(c2ccc(CO)cc2)=CC(c2cccs2)N(Cc2cccc(OC(F)(F)F)c2)C=C1C(=O)OCCS(C)(=O)=O (configuration not stated): 0.024
CN1C(=O)C2C(C1=O)C1C=C(c3ccc(CO)cc3)C2C(C2CC2)N1Cc1sc2ccccc2c1Cl (configuration not stated): 0.0311
O=C(CS)NCCCCCNC(=O)[C@H]1C[C@H]2C(=O)N[C@@H](Cc3ccccc3)C(=O)N2[C@H]1c1cccc(OCCO)c1: -0.0195

# input compound: C=C(COC)C(=O)CC[C@H](OC(=O)c1cccnc1)c1ccccc1OCCO ; wanted: its composite z-score
-0.0004

Entry under review: CC(C)NC(=O)[C@@]1(c2ccc([N+](=O)[O-])cc2)CC(=O)N(C(C)C)[C@@H]1c1ccc(CO)cc1 . Reported composite z-score?
-0.134

Could you tell me which composite z-score is on file for CN(C)CCCCCCNC(=O)[C@@H]1C[C@@H]2C(=O)NCC(=O)N2[C@@H]1c1cccc(OCCO)c1 ?
0.153

* * *

test: small molecules captured by biotinylated probe aFST – biochemical, small-molecule microarray, fluorescence 635/667, stem cell growth factor project, primary screen (AID 1086); details: higher = more signal;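 note: score merges 667 nm fluorescence with signal-to-noise of each printed compound spot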
Respond with TRUE for composite z-score values of 0.03 and above, FALSE for values below.

Past entries and their recorded results:
Cc1ccccc1/C=C/C=O: FALSE
[N-]=[N+]=Nc1ccccc1[C@@H]1OC(c2ccc(OCCCO)cc2)=N[C@]1(CCS(=O)(=O)c1ccccc1)C(=O)O: TRUE
[N-]=[N+]=NCc1ccccc1[C@H]1OC(c2ccc(OCCCO)cc2)=N[C@@]1(Cc1ccccc1)C(=O)NCC(O)CO (stereo partly specified): TRUE
C=CCC(OC(C)=O)[C@@H]1[C@@H](N(Cc2cc3ccccc3o2)C(=O)c2ccc(-c3ccccc3)cc2)c2cc(OCCCO)ccc2N1C(=O)Cc1ccc2ccccc2c1 (stereo partly specified): TRUE
CN(C)CCCCCCNC(=O)[C@@H]1C[C@@H]2C(=O)NCC(=O)N2[C@@H]1c1cccc(OCCO)c1: TRUE
CCCC[C@H]1OB(O)C[C@H]2C1=C(COc1ccccc1)C[C@H]1C(=O)N(Cc3ccccc3)C(=O)[C@H]12: FALSE
Cc1ccc([C@H]2C(C(=O)O)=C[C@@H](C(C)C)N2S(=O)(=O)c2ccc(C)cc2)cc1: TRUE
O=C1OCCC=C[C@H]2OC34C=CCN(c5ccc6ccccc6c5)C(=O)[C@H]3N(CCCCCCO)C(=O)[C@@H]4C12 (stereo partly specified): FALSE
OCCCc1cc[n+](Cc2cccc(OC(F)(F)F)c2)cc1: TRUE
CCOC(=O)C[C@H]1[C@H](OC(=O)c2ccc(C(=O)c3ccccc3)cc2)[C@@H](NC(=O)c2ccc3ccccc3n2)c2cc(OCCCO)ccc2N1C(=O)c1ccc2ccccc2n1: TRUE

Check the entry COc1cc(CO)cc(I)c1O[C@H]1C=C(C(=O)NCCO)C[C@@H](N(CCc2cccc(F)c2)C(=O)CCC2CCCC2)[C@@H]1O : does composite z-score equal or exceed 0.03?
TRUE

* * *

assay: probe aLefty2 binding to arrayed compounds – biochemical, biotinylated probe, 635/667 nm fluorescence, primary screen (AID 1094); details: small-molecule microarray, higher = more signal;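 note: score merges spot fluorescence near 667 nm with spot signal-to-noise ratio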
measurement_label: composite z-score
# print the numeric value only

Observe how each entry below is paired with its result.
O=C1OCCC/C=C\[C@H]2OC34C=CCN(Cn5nnc6ccccc65)C(=O)[C@H]3N(CCCO)C(=O)[C@@H]4C12 (stereo partly specified): -0.225
CCCNC(=O)[C@@]1(C)c2ccccc2C(=O)N(Cc2ccc(OC(F)(F)F)cc2)[C@H]1c1ccc(CO)cc1: 0.0241
CN1C(=O)C2C=CC(C(O)c3ccccc3)N(NC(=O)OC(C)(C)C)C2C1=O (stereo unspecified): 0.0875

What composite z-score value was documented for this compound, NC(=O)NCC#Cc1ccc2c(c1)[C@]1(C(=O)N2)[C@H](c2ccccc2OCCO)N2[C@H](c3ccccc3)[C@H](c3ccccc3)OC(=O)[C@H]2[C@@H]1C(=O)N1CCCCCCC1 ?
1.79

GET /values?readout=composite z-score&item= Cc1ccc(S[C@]2(C(=O)NCCN3CCOCC3)CC(=O)N(C3CCCCC3)[C@@H]2c2ccc(CO)cc2)cc1
-0.072

Look at this compound and give its reported composite z-score. COc1cc2c(cc1O)C(c1ccc(CN3CCCC3)cc1)N(Cc1sc3ccccc3c1Cl)CC2 (stereo unspecified)
0.157

* * *

molecular target: Carbonic anhydrase 2 (Homo sapiens) (UniProt P00918); assay: compounds binding carbonic anhydrase 2 – biochemical, small-molecule microarray, Alexa647-labelled CAII, profiling panel (AID 1122); conditions: CAII-A647 binding fluorescence, higher = more signal
Each entry below carries its recorded composite z-score.
Answer using only a numeral; do not append any unit.

COc1cc2c(cc1O)C(c1ccc(CN3CCCC3)cc1)N(Cc1sc3ccccc3c1Cl)CC2 (stereo not given): 0.752

So what does the record say about composite z-score for O=C1O[C@@H](c2ccccc2)[C@@H](c2ccccc2)N2[C@@H](c3ccccc3OCCO)[C@]3(C(=O)Nc4ccc(C#CC5(O)CCCCCC5)cc43)[C@@H](C(=O)NC[C@H](O)c3ccccc3)[C@H]12 ?
0.244

Consider the compound shown here: CN(C)CCCCNC(=O)[C@@H]1C[C@@H]2C(=O)N[C@@H](CCCCN)C(=O)N2[C@@H]1c1cccc(OCCO)c1 What is its recorded composite z-score?
0.42

So what's the measured composite z-score for this one? CC(C)N1C(=O)c2ccccc2[C@](C)(C(=O)NCCCN(C)C)[C@@H]1c1ccc(CO)cc1
0.526

composite z-score for C[N+](C)(C)CCCCNC(=O)[C@H]1C[C@H]2C(=O)N3CCC[C@H]3C(=O)N2[C@H]1c1ccc(O)cc1 ?
0.627

Which composite z-score value is on record for Cc1ccc(S[C@]2(C(=O)NCC(C)C)CC(=O)N(Cc3ccccc3)[C@@H]2c2ccc(CO)cc2)cc1 ?
0.748

* * *

test: plasmodial surface anion channel blockers, osmotic lysis – cell-based, P. falciparum Indochina, OD700, 1 h, primary screen (AID 1154); details: P. falciparum Indochina infected RBC osmotic lysis, called active from +8 up or from −8 down
Calls of active or inactive are those of the source.
Pick one and only one: active, inactive

O=C1O[C@H](c2ccccc2)[C@H](c2ccccc2)N2[C@H]1[C@@H](C(=O)Nc1nc3ccccc3s1)[C@]1(C(=O)Nc3ccc(C#CC4=CCCCC4)cc31)[C@H]2c1ccc(OCCO)cc1: inactive

// return assay outcome for C=CC[C@@]1(C(=O)NCCN2CCOCC2)N=C(c2ccc(OCCCO)cc2)O[C@@H]1c1ccccc1CN=[N+]=[N-]
active

Hi team, can someone confirm the assay call for COC(=O)[C@@]1(Cc2ccccc2)[C@H]2c3cc(C(=O)N(C)C)n(Cc4cc(F)c(F)c(F)c4)c3C[C@H]2CN1C(=O)c1ccccc1 ?
active

* * *

Overview of reported z-score across a group of molecules:
assay: compound effects on lung adenocarcinoma cell viability – A549, calcein-AM fluorescence, 48 h, basal, profiling panel (AID 1162); conditions: higher = more signal; note: test concentration not given here

COc1ccc(C#Cc2ccc3c(c2)[C@]2(C(=O)N3)[C@H](c3ccc(OCCO)cc3)N3[C@H](c4ccccc4)[C@H](c4ccccc4)OC(=O)[C@H]3[C@@H]2C(=O)Nc2nc3ccccc3s2)cc1: 1.47
C#C[C@H](O[Si](C#CCCCCCC)(C(C)C)C(C)C)c1ccccc1: 0.303

Tell me the measured z-score of [N-]=[N+]=Nc1ccccc1[C@@H]1OC(c2ccc(OCCCO)cc2)=N[C@]1(CCS(=O)(=O)c1ccccc1)C(=O)N1CCCCC1 , please.
-0.564

I would be grateful if you could share the reported z-score for CN(C)CCCC[C@@H]1NC(=O)[C@@H]2C[C@H](C(=O)NCCCCCN)[C@H](c3ccc(O)cc3)N2C1=O .
0.635

Sample COCCOC(=O)N1C(=O)[C@@]2(c3ccccc31)[C@H](c1ccc(O)cc1)N1[C@H](c3ccccc3)[C@H](c3ccccc3)OC(=O)[C@H]1[C@@H]2C(N)=O — what was its z-score?
0.357

Any idea what z-score was measured for COc1ccc([Si](C)(C)[C@@H]2[C@@H](CCO)O[C@]3(C(=O)N(Cc4ccccc4)c4ccc(N(C=O)c5ccccc5)cc43)[C@H]2C)cc1 ?
-0.77

Dear colleague, I am looking for the recorded z-score of the following molecule: COC(=O)[C@@]1(Cc2ccc(F)cc2)[C@H]2c3cc(C(=O)N(C)C)n(Cc4ccccn4)c3C[C@H]2CN1C(=O)c1ccccc1
-1.48

What value of z-score has been reported for the following molecule? C=CC[C@@]1(C(=O)NCCN2CCOCC2)N=C(c2ccc(OCCCO)cc2)O[C@@H]1c1ccccc1CN=[N+]=[N-]
-0.0982

Quick one: z-score for O=S(=O)(NCCCO)c1ccc(Br)cc1 ?
0.819

Dear colleague, I am looking for the recorded z-score of the following molecule: O=C1NC(=O)C2C1C=CC(C(O)c1cccs1)N2Nc1ccccn1 (stereo not given)
1.74
